Data provenance is patent US20220000983A1.

# STUDY SYSTEM: T1, GHRH receptor (membrane GHRH-receptors on human anterior pituitary cells) (human, UniProt Q02643 23-423)
# T1 construct: whole, on cells; Native receptor in membrane fractions prepared from bought human pituitary (National Hormone and Peptide Program), not a recombinant construct; also called pituitary type GHRH-receptor; pGHRH-R
# T1 sequence (looked up): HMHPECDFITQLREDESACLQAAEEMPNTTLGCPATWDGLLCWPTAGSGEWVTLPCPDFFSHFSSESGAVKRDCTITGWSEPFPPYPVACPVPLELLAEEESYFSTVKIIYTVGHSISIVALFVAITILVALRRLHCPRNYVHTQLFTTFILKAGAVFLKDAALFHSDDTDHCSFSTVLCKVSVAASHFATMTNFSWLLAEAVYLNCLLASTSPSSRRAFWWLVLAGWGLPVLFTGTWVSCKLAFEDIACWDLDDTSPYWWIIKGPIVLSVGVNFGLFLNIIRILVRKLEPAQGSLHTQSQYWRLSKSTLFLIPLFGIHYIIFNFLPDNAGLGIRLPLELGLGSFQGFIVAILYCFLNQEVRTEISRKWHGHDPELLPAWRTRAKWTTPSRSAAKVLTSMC
# TEST DETAILS: competitive radioligand binding; displacement of 125I-[His1,Nle27]-hGH-RH(1-32)NH2 (0.2 nM) from human pituitary membrane fractions
pIC50: −log10 of the molar value. Starred links: 1 amine or outer side, 2 acyl side, 3 side chain; linkers in the order of their positions; H or OH if unused. Non-standard residues stand in square brackets, D forms with d. No end group written: not given here. *: point of attachment. Tyr(Me) = O-methyltyrosine, COc1ccc(C[C@H](N[*:1])C(=O)[*:2])cc1; Phenylacetyl(2,3,4,5,6-F5) = O=C(Cc1c(F)c(F)c(F)c(F)c1F)*; Phe(F5) = N[C@@H](Cc1c(F)c(F)c(F)c(F)c1F)C(=O)O; Phe(4-Cl) = N[C@@H](Cc1ccc(Cl)cc1)C(=O)O; hArg = N=C(N)NCCCC[C@H](N)C(=O)O; Nle = CCCC[C@H](N)C(=O)O; Orn = NCCC[C@H](N)C(=O)O; Abu = CC[C@H](N)C(=O)O; Ada = not defined here; Cpa = not defined here; PhAc = O=C(Cc1ccccc1)*; Aoc = NCCCCCCCC(=O)O
METRIC: pIC50

Sample answers from the record:
{"BINDER": "{PhAc-Ada}-Y[dR]DAI[Cpa]TA[hArg][Phe(F5)]H[Orn]VL[Abu]QLSAH[Orn]LLQDI[Nle][dR][hArg]-NH2 (reading uncertain) [MIA-690]", "pIC50": 9.28}
{"BINDER": "{dF-Ada}-Y[dR]DAI[Phe(4-Cl)]TAR[Tyr(Me)]RKVL[Abu]QLSAH[Orn]LLQDI[Nle][dR][hArg]-NH2 (reading uncertain, Synthetic GHRH antagonist) [AVR-120]", "pIC50": 9.32}
{"BINDER": "{Phenylacetyl(2,3,4,5,6-F5)-Ada}-Y[dR]DAI[Phe(4-Cl)]TN[hArg][Tyr(Me)]RKVL[Abu]QLSARKLLQDI[Nle][dR][hArg]-{Aoc-NHMe} (reading uncertain, Synthetic GHRH antagonist) [AVR-322]", "pIC50": 9.60}
{"BINDER": "{Phenylacetyl(2,3,4,5,6-F5)-Ada}-Y[dR]DAI[Cpa]TA[hArg][Phe(F5)]H[Orn]VL[Abu]QLSAH[Orn]LLQDI[Nle][dR][hArg]-NHMe (reading uncertain) [AVR-542]", "pIC50": 9.68}

I: {PhAc-Ada}-Y[dR]DAI[Phe(4-Cl)]TNR[Tyr(Me)]RKVL[Abu]QLSARKLLQDI[Nle][dR][hArg]-NHMe (reading uncertain, Synthetic GHRH antagonist) [AVR-234]
II: {PhAc-Ada}-Y[dR]DAI[Phe(4-Cl)]TN[hArg][Tyr(Me)]RKVL[Abu]QLSARKLLQDI[Nle][dR][hArg]-{Aoc-NHMe} (reading uncertain, Synthetic GHRH antagonist) [AVR-321]
III: {Phenylacetyl(2,3,4,5,6-F5)-Ada}-Y[dR]DAI[Phe(4-Cl)]TA[hArg][Phe(F5)]RKVL[Abu]QLSARKLLQDI[Nle][dR][hArg] (not fully specified (C-terminus); reading uncertain) [AVR-354]
Rank descending by pIC50. Would you mind listing the labels in the order asked for?
III, II, I

P: {Phenylacetyl(2,3,4,5,6-F5)-Ada}-Y[dR]DAI[Phe(4-Cl)]TN[hArg][Tyr(Me)]RKVL[Abu]QLSARKLLQDI[Nle][dR][hArg]-{Ada-NH2} (reading uncertain, Synthetic GHRH antagonist) [AVR-333]
Q: {PhAc-Ada}-Y[dR]DAI[Phe(4-Cl)]TAR[Phe(F5)]RKVL[Abu]QLSAH[Orn]LLQDI[Nle][dR][hArg]-NH2 (reading uncertain, Synthetic GHRH antagonist) [AVR-116]
R: {Phenylacetyl(2,3,4,5,6-F5)-Ada}-Y[dR]DAI[Phe(4-Cl)]TA[hArg][Phe(F5)]RKVL[Abu]QLSARKLLQDI[Nle][dR][hArg]-{Ada-NH2} (reading uncertain, Synthetic GHRH antagonist) [AVR-353]
Rank items: key pIC50, increasing. Would you mind listing the labels in the order asked for?
Q, P, R

a: {Phenylacetyl(2,3,4,5,6-F5)-Ada}-Y[dR]DAI[Cpa]TNR[Tyr(Me)]RKVL[Abu]QLSAH[Orn]LLQDI[Nle][dR][hArg]-{Ada-NH2} (reading uncertain, Synthetic GHRH antagonist) [AVR-620]
b: {PhAc-Ada}-Y[dR]DAI[Cpa]TARYRKVL[Abu]QLSARKLLQDI[Nle][dR][hArg]-NH2 (reading uncertain, Synthetic GHRH antagonist) [AVR-107]
c: {Phenylacetyl(2,3,4,5,6-F5)-Ada}-Y[dR]DAI[Phe(F5)]TA[hArg][Tyr(Me)]RKVL[Abu]QLSARKLLQDI[Nle][dR][hArg]-{Ada-NH2} (not fully specified; reading uncertain) [AVR-352]
Rank descending by pIC50. Would you mind listing the labels in the order asked for?
c, a, b
(c: 10.05, a: 9.51, b: 9.21)

1: {Phenylacetyl(2,3,4,5,6-F5)-Ada}-Y[dR]DAI[Cpa]TA[hArg][Phe(F5)]H[Orn]VL[Abu]QLSAH[Orn]LLQDI[Nle][dR][hArg]-{Ada-NHMe} (reading uncertain, Synthetic GHRH antagonist) [AVR-543]
2: {PhAc-Ada}-Y[dR]DAI[Phe(4-Cl)]TAR[Tyr(Me)]RKVL[Abu]QLSAH[Orn]LLQDI[Nle][dR][hArg]-NH2 (reading uncertain, Synthetic GHRH antagonist) [AVR-104]
Endpoint returns the identifier whose pIC50 is numerically larger, either 1 or 2 . Mark your answer with the label of the selected entry.
1
(1: 9.60, 2: 9.23)
